- Tgt: 3',5'-cyclic-AMP phosphodiesterase 4B (Homo sapiens, UniProt Q07343)
- Sequence (Q07343 whole entry): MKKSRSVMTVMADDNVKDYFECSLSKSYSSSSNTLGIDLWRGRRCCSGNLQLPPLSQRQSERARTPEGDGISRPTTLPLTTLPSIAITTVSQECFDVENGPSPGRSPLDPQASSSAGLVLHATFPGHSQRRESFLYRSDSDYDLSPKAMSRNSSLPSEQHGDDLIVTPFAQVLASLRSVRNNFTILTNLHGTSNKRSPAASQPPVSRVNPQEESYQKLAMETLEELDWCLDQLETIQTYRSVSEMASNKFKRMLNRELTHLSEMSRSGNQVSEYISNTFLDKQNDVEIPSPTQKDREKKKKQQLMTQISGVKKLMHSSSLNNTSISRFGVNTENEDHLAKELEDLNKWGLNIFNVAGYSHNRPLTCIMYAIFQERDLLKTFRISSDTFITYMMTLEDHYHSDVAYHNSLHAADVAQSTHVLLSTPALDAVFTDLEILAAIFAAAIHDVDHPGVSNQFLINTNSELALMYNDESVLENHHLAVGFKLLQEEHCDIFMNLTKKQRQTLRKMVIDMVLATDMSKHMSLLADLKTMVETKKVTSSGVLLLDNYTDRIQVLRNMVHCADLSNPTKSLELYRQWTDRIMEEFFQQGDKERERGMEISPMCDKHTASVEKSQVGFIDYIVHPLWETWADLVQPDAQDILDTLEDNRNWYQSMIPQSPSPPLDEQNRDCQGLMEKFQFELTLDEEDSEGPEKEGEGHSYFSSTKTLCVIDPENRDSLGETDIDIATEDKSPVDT
- Method notes: Inhibition of human recombinant PDE4B
Give IC50 for every item shown.

Input: Return IC50 (reported value) for this compound: `Clc1ncnc2ccccc12`
Output: 231 nM

Input: Specify measured IC50 for `COc1ccc(/C=N/N(C)C(=O)c2ccc(O)cc2)cc1OC` .
Output: 47 nM

Input: Please report IC50 for the following compound: `COc1ccc(C(=O)N(C)/N=C/c2ccc(OC)c(OC)c2)cc1`
Output: 53 nM

----------
Please respond with reported inhibition for every item in the list.
- Species on record: Bos taurus
- Method notes: Inhibition of bovine PDE4 using [3H]cAMP as substrate at 10 uM
Dear colleague, please return just the value in %, with no unit written.

Input: Dear colleague, please send me the reported inhibition for `COc1ccc(/C=N/NC(=O)c2ccc3c(c2)OCO3)cc1OC` when you can.
Output: 16

Input: Please look at this compound and report its inhibition: `COc1ccc(/C=N/NC(=O)c2ccccc2)cc1OC`
Output: 13.1

Input: Read the entry `COc1ccc(/C=N/NC(=O)c2ccc(OC)c(OC)c2)cc1` and write its reported inhibition.
Output: 6.6

Input: Output measured inhibition for this item: `COc1ccc(/C=N/N(C)C(=O)c2ccc3c(c2)OCO3)cc1OC`
Output: 96.3

Input: Return the recorded inhibition value; entry: `COc1ccc(C(=O)N/N=C/c2ccc(Cl)cc2)cc1OC`
Output: 6.4

Input: Using known records, supply inhibition for `COc1ccc(/C=N/N(C)c2ncnc3ccccc23)cc1OC`
Output: 98

----------
- Method notes: Inhibition of PDE6 at 10 uM
Each entry gets no if its inhibition stays under 30%, and yes if its inhibition is 30% or above.

Input: Given the entry `COc1ccc(/C=N/N(C)C(=O)c2ccccc2OC)cc1OC` , answer whether its inhibition meets or surpasses 30%.
Output: no

Input: Please check the record `COc1ccc(/C=N/N(C)C(=O)c2ccc(Cl)cc2)cc1OC` and state if its inhibition is at or above 30%.
Output: yes

Input: State whether the measured inhibition reaches 30%, counting equality as reaching it, for `COc1cccc(C(=O)N(C)/N=C/c2ccc(OC)c(OC)c2)c1`
Output: yes

Input: API: above_or_equal(metric=inhibition, cutoff=30%) for item `COc1ccc(/C=N/N(C)C(=O)c2ccccc2)cc1OC`
Output: yes

Input: Is it the case that `COc1ccc(/C=N/N(C)C(=O)c2ccc3c(c2)OCO3)cc1OC` has inhibition reaching or exceeding 30%?
Output: no

Input: Identify whether the reported inhibition of the following compound is 30% or greater: `COc1ccc(C(=O)N(C)/N=C/c2ccc(OC)c(OC)c2)cc1`
Output: yes

----------
- Tgt: 3',5'-cyclic-AMP phosphodiesterase 4D (Homo sapiens, UniProt Q08499)
- Sequence (Q08499 whole entry): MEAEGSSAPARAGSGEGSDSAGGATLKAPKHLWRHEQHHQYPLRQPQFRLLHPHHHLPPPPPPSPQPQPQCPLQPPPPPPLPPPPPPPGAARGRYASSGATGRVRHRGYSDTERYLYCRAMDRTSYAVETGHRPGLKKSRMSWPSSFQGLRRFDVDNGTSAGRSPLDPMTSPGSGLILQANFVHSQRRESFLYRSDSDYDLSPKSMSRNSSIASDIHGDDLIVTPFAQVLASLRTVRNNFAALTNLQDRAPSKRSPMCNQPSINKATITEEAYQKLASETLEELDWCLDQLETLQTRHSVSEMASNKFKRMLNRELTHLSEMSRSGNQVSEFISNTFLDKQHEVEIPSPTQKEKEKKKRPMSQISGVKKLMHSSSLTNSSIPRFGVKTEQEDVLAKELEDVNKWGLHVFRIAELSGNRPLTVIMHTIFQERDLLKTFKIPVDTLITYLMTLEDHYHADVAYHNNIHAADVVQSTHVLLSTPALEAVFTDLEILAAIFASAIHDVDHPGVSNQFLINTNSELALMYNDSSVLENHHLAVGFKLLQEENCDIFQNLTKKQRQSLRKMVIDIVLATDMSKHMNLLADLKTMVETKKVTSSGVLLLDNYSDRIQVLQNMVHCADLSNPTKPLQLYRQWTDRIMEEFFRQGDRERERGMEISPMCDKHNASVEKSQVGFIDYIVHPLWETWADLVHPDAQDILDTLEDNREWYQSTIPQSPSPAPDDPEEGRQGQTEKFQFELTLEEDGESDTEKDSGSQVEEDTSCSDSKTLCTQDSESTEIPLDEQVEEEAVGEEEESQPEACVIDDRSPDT
- Method notes: Inhibition of human recombinant PDE4D
Measured metric: pIC50
Expect pIC50 as a plain number equal to -log10 of the molar concentration.

Input: Send back 3',5'-cyclic-AMP phosphodiesterase 4D (Homo sapiens, UniProt Q08499) pIC50 of `COc1ccc(/C=N/N(C)C(=O)c2ccccc2)cc1OC` only.
Output: 6.85

Input: Provide measured pIC50 on 3',5'-cyclic-AMP phosphodiesterase 4D (Homo sapiens, UniProt Q08499) for `Clc1ncnc2ccccc12` please.
Output: 6.21

Input: Specify pIC50 for `COc1ccc(C(=O)N(C)/N=C/c2ccc(OC)c(OC)c2)cc1` , system 3',5'-cyclic-AMP phosphodiesterase 4D (Homo sapiens, UniProt Q08499).
Output: 7.13

Input: Param request: pIC50 | system 3',5'-cyclic-AMP phosphodiesterase 4D (Homo sapiens, UniProt Q08499) | item `COc1ccc(/C=N/N(C)C(=O)c2ccc(O)cc2)cc1OC`
Output: 7.51

----------
- Species on record: Bos taurus
- Method notes: Inhibition of bovine PDE4 using [3H]cAMP as substrate at 10 uM
Measured metric: inhibition
Number first, unit second: that is the form wanted.

Input: Supply inhibition value. Item: `COc1ccc(/C=N/NC(=O)c2ccc(OC)c(OC)c2)cc1OC`
Output: 10.7%

Input: State its inhibition: `COc1ccc(/C=N/NC(=O)c2ccc(O)cc2)cc1OC`
Output: 13.6%

Input: Identify inhibition associated with the compound `COc1ccc(/C=N/N(C)C(=O)c2ccc(OC)c(OC)c2)cc1OC`
Output: 95.8%

Input: Please supply the value of reported inhibition for the item `COc1ccc(/C=N/N(C)C(=O)c2ccc(OC)c(OC)c2)cc1`
Output: 45.8%

Input: Using the record for `COc1ccc(/C=N/N(C)C(=O)c2ccc(Cl)cc2)cc1OC` , state its measured inhibition.
Output: 97%

Input: For the compound `COc1ccc(/C=N/N(C)C(=O)c2ccc(O)cc2)cc1OC` , give its measured inhibition value.
Output: 98.4%

Input: Could you please provide reported inhibition for `COc1ccc(C(=O)N/N=C/c2ccc(O)cc2)cc1OC` ? Thanks!
Output: 1.5%

Input: Please list inhibition recorded for the compound `COc1ccc(C2=NN(C)C(=O)c3ccccc3C2)cc1OC`
Output: 76.5%

Input: State its inhibition: `COc1cccc(C(=O)N(C)/N=C/c2ccc(OC)c(OC)c2)c1`
Output: 98.1%

Input: Complete the entry with inhibition for `COc1ccc(/C=N/N(C)C(=O)c2ccccc2OC)cc1OC`
Output: 97.8%

Input: Fill in reported inhibition for this entry: `COc1ccc(C(=O)N/N=C/c2c(C)nc3ccccn23)cc1OC`
Output: 7.7%

Input: Report inhibition, nothing else, for this compound: `COc1ccc(-c2nn(C(=O)c3ccccc3)c3ccccc23)cc1OC`
Output: 81.2%

Input: Give inhibition for the following compound: `COc1ccc(/C=N/NC(=O)c2ccc(Cl)cc2)cc1OC`
Output: 7.5%

Input: Read the entry `COc1ccc(C2=NNC(=O)c3ccccc3C2)cc1OC` and write its reported inhibition.
Output: 78.8%

Input: Give the reported value of inhibition for this record: `COc1ccc(C(=O)N(C)/N=C/c2ccc3c(c2)OCO3)cc1OC`
Output: 19.8%

Input: Indicate the recorded inhibition value for this compound: `COc1ccc(C(=O)N/N=C/c2ccc(OC)c(OC)c2)cc1`
Output: 9.7%

Input: Complete the entry with inhibition for `COc1ccc(C(=O)N(C)/N=C/c2ccc(OC)c(OC)c2)cc1`
Output: 98.3%

Input: Determine from records and report inhibition for `COc1ccc(C(=O)N(C)/N=C/c2ccc(Cl)cc2)cc1OC`
Output: 40.4%

Input: Output measured inhibition for this item: `COc1ccc(/C=N/N(C)C(=O)c2ccccc2)cc1OC`
Output: 97.1%

Input: Hello, please tell me recorded inhibition for this one: `COc1ccc(C(=O)N(C)/N=C/c2ccccc2)cc1OC`
Output: 22.8%

Input: Answer with the recorded inhibition for the compound listed here: `COc1ccc(/C=N/N(C)C(=O)c2c(C)nc3ccccn23)cc1OC`
Output: 45.9%

Input: Give inhibition for the following compound: `COc1ccc(/C=N/NC(=O)c2c(C)nc3ccccn23)cc1OC`
Output: 41.5%

Input: Annotate the compound `COc1ccc(C(=O)N/N=C/c2ccccc2)cc1OC` with its measured inhibition.
Output: 5.8%

Input: Please report the measured inhibition for `COc1ccc(C(=O)N/N=C/c2ccc3c(c2)OCO3)cc1OC`
Output: 10.5%

Input: Specify inhibition for `COc1ccc(C(=O)N(C)/N=C/c2ccc(O)cc2)cc1OC` and stop.
Output: 27%

----------
- Organism: Bos taurus
- Method notes: Inhibition of bovine PDE1 using [3H]cAMP as substrate at 10 uM
Measured metric: inhibition (%)
# unit: % | format: bare number

Input: Using known records, supply inhibition for `COc1ccc(/C=N/N(C)C(=O)c2ccc(Cl)cc2)cc1OC`
Output: 17.7

Input: Consider the compound `COc1ccc(C(=O)N(C)/N=C/c2ccc(OC)c(OC)c2)cc1` and give its recorded inhibition.
Output: 25.1

Input: Provide only the value of recorded inhibition for `COc1cccc(C(=O)N(C)/N=C/c2ccc(OC)c(OC)c2)c1`
Output: 18.5

Input: Name the recorded inhibition of the compound listed here: `COc1ccc(/C=N/N(C)C(=O)c2ccc3c(c2)OCO3)cc1OC`
Output: 0

Input: Supply measured inhibition of `COc1ccc(/C=N/N(C)C(=O)c2ccc(O)cc2)cc1OC` in your reply.
Output: 28.3

Input: Kindly indicate its recorded inhibition. Item: `COc1ccc(/C=N/N(C)C(=O)c2ccccc2)cc1OC`
Output: 6

Input: Give recorded inhibition. `COc1ccc(/C=N/N(C)C(=O)c2ccc(OC)c(OC)c2)cc1OC`
Output: 38.7

Input: Write down inhibition measured for item `COc1ccc(/C=N/N(C)C(=O)c2ccccc2OC)cc1OC`
Output: 11
